Tgt: GST-MCL-1 (Homo sapiens, UniProt Q07820)
Sequence (Q07820 whole entry): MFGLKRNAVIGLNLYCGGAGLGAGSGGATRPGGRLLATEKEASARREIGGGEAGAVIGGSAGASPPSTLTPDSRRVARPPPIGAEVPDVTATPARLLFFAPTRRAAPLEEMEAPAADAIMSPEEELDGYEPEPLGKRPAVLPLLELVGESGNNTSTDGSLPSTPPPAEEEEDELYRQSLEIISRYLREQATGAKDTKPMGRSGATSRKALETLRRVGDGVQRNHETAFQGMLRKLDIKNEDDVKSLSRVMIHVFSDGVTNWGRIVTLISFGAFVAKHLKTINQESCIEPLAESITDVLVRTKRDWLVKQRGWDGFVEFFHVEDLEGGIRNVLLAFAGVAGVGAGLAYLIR
Protocol summary: TR-FRET MCL-1 binding assay (competition with probe F-Bak)
Condition description: MCL-1 Binding Ki (nM, 10% HS), in the presence of 10% HS (human serum)
Measured quantity: Ki (nM)

>>> numeric_readout("COCCOCCOCCOCCOCCOCCOCCOc1ccc(-c2nccc(COc3ccc4cc3C[C@H](C(=O)O)Oc3ncnc5sc(-c6ccc(F)cc6)c(c35)-c3c(C)c(Cl)c(c(Cl)c3C)O[C@H](CN3CCN(C)CC3)CO4)n2)cc1")
0.139
>>> numeric_readout("COCCOCCOCCOc1ccccc1-c1nccc(COc2ccc3cc2C[C@@H](C(=O)O)Oc2ncnc4sc(-c5ccc(F)cc5)c(c24)-c2ccc(c(Cl)c2C)O[C@H](CN2CCN(C)CC2)CO3)n1 (atropisomer, axis not shown)")
76
>>> numeric_readout("COCCOCCOC[C@@H]1CC=C(c2nccc(COc3ccc4cc3C[C@H](C(=O)O)Oc3ncnc5sc(-c6ccc(F)cc6)c(c35)-c3c(C)c(Cl)c(c(Cl)c3C)O[C@H](CN3CCN(C)CC3)CO4)n2)CC1")
0.275
>>> numeric_readout("Cc1c(Cl)c2c(Cl)c(C)c1-c1c(-c3ccc(F)cc3)sc3ncnc(c13)O[C@@H](C(=O)O)Cc1cc(ccc1OCc1ccnc([C@H]3CC[C@H](CC(=O)O)CC3)n1)OC[C@@H](CN1CCN(C)CC1)O2")
0.034
>>> numeric_readout("COCCOCCOCCOc1cncc(COc2ccc3cc2C[C@H](C(=O)O)Oc2ncnc4sc(-c5ccc(F)cc5)c(c24)-c2c(C)c(Cl)c(c(Cl)c2C)O[C@H](CN2CCN(C)CC2)CO3)n1")
0.868
>>> numeric_readout("CO[C@H]1O[C@H](COc2ccc(-c3nccc(COc4ccc5cc4C[C@H](C(=O)O)Oc4ncnc6sc(-c7ccc(F)cc7)c(c46)-c4ccc(c(Cl)c4C)O[C@H](CN4CCN(C)CC4)CO5)n3)cc2)[C@@H](O)[C@H](O)[C@@H]1O")
0.227
>>> numeric_readout("CO[C@@H]1CO[C@H]2[C@@H]1OC[C@H]2OCCOc1ccc(-c2nccc(COc3ccc4cc3C[C@H](C(=O)O)Oc3ncnc5sc(-c6ccc(F)cc6)c(c35)-c3c(C)c(Cl)c(c(Cl)c3C)O[C@H](CN3CCN(C)CC3)CO4)n2)cc1")
0.191
>>> numeric_readout("Cc1c(Cl)c2c(Cl)c(C)c1-c1c(-c3ccc(F)cc3)sc3ncnc(c13)O[C@@H](C(=O)O)Cc1cc(ccc1OCc1ccnc(N3CCC(CC(=O)O)CC3)n1)OC[C@@H](CN1CCN(C)CC1)O2")
0.775
>>> numeric_readout("COc1ccccc1-c1nccc(COc2ccc3cc2C[C@H](C(=O)O)Oc2ncnc4sc(-c5ccc(F)cc5)c(c24)-c2ccc(c(Cl)c2C)O[C@H](CN2CCN(C[C@H]4O[C@H](OC)[C@@H](OC)[C@@H](OC)[C@@H]4OC)CC2)CO3)n1")
0.221

###

Tgt: GST-MCL-1 (Homo sapiens, UniProt Q07820)
Protocol summary: TR-FRET MCL-1 binding assay (competition with probe F-Bak)
Condition description: without HS; read-out: MCL-1 Binding Ki
The compounds listed here are annotated with their log10(Ki).
Measured quantity: log10(Ki) (log10 of the value in nM)

>>> numeric_readout("COCCOCCOCCN(CCOCCOCCOC)c1nccc(COc2ccc3cc2C[C@H](C(=O)O)Oc2ncnc4sc(-c5ccc(F)cc5)c(c24)-c2c(C)c(Cl)c(c(Cl)c2C)O[C@H](CN2CCN(C)CC2)CO3)n1")
-0.13
>>> numeric_readout("Cc1c(Cl)c2c(Cl)c(C)c1-c1c(-c3ccc(F)cc3)sc3ncnc(c13)O[C@@H](C(=O)O)Cc1cc(ccc1OCc1ccnc(-c3ccc(CN4CCS(=O)(=O)CC4)cc3)n1)OC[C@@H](CN1CCN(C)CC1)O2")
-1.37
>>> numeric_readout("Cc1c(Cl)c2c(Cl)c(C)c1-c1c(-c3ccc(F)cc3)sc3ncnc(c13)O[C@@H](C(=O)O)Cc1cc(ccc1OCc1ccnc(N3CCP(C)(=O)CC3)n1)OC[C@@H](CN1CCN(C)CC1)O2")
-0.07
>>> numeric_readout("CO[C@@H]1CO[C@H]2[C@@H]1OC[C@H]2OCCOc1ccc(-c2nccc(COc3ccc4cc3C[C@H](C(=O)O)Oc3ncnc5sc(-c6ccc(F)cc6)c(c35)-c3c(C)c(Cl)c(c(Cl)c3C)O[C@H](CN3CCN(C)CC3)CO4)n2)cc1")
-1.74
>>> numeric_readout("COCCOCCOCCOc1ccccc1-c1nccc(COc2ccc3cc2C[C@@H](C(=O)O)Oc2ncnc4sc(-c5ccc(F)cc5)c(c24)-c2ccc(c(Cl)c2C)O[C@H](CN2CCN(C)CC2)CO3)n1 (atropisomer, axis not shown)")
0.61
>>> numeric_readout("Cc1c(Cl)c2c(Cl)c(C)c1-c1c(-c3ccc(F)cc3)sc3ncnc(c13)O[C@@H](C(=O)O)Cc1cc(ccc1OCc1ccnc(N3CCC(F)(COCCOCC4COCCO4)CC3)n1)OC[C@@H](CN1CCN(C)CC1)O2 (stereo partly drawn)")
-0.64
>>> numeric_readout("COCCOCCOCCOc1ccc(-c2nccc(COc3ccc4cc3C[C@H](C(=O)O)Oc3ncnc5sc(-c6ccc(F)cc6)c(c35)-c3c(C)c(Cl)c(c(Cl)c3C)O[C@H](CN3CCN(C)CC3)CO4)n2)cc1")
-1.55
>>> numeric_readout("Cc1c(Cl)c2c(Cl)c(C)c1-c1c(-c3ccc(F)cc3)sc3ncnc(c13)O[C@@H](C(=O)O)Cc1cc(ccc1OCc1ccnc(N3C[C@H]4C[C@@H](C3)C4(F)F)n1)OC[C@@H](CN1CCN(C)CC1)O2")
-0.85
>>> numeric_readout("Cc1c(Cl)c2c(Cl)c(C)c1-c1c(-c3ccc(F)cc3)sc3ncnc(c13)O[C@@H](C(=O)O)Cc1cc(ccc1OCc1ccnc(-c3ccc(OCCN4CCOCC4)cc3)n1)OC[C@@H](CN1CCN(C)CC1)O2")
-1.60
